Provide the recorded sfGFP reporter fluorescence for the entries that follow.
B1: library; numbered along this chain (parent)
chain: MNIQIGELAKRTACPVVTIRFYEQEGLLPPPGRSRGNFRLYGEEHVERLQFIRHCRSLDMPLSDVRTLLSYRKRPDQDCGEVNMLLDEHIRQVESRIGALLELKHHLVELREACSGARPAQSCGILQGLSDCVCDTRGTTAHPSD

- Variants of: B1
- Experiment summary: sfGFP reporter fluorescence (15 h) (µM FITC); higher = higher leak
- Measurement context: library round: Round 1; ligand: none
Give bare numbers.

The examples below pair each entry with its known result.
MNIQIGELAKRTACPVVTIRFYEQEGLLPPPGRSRGNFRLYGEEHVERLQFIRHCRSLDMNLSDVRTLLSYRKRPDQDCGEVNMLLDEHIRQVESRIGALLELKHHLVELREACSGARPAQSCGILQGLSDCVVDTRGTTAHPSD [P61N C134V] = 0.095
MNIQIGELAKRTACPVVTIRFYEQEGLLPPPGRSRGNFRLYGEEHVERLQFIRHCRSLDMPISDVRTLLSYRKRPDQDCGEVNMLLDEHIRQVESRIGALLELKHHLVELLEACSGARPAQSCGILQGLSDCVCDTRGTTAHPSD [L62I R111L] = 0.0639
MNIQIGELAKRTACPVVTIRFYEQEGLLPPPGRSRGNFRLYGEEHVERLQFIRHCRSLDMLISDVRTLLSYRKRPDQDCGEVNMLLDEHIRQVESRIGALLELKHHLVELREACSGARPAQSCGILQGLSDCVCDTRGTTAHPSD [P61L L62I] = 0.063
MNIQIGELAKRTACPVVTIRFYEQEGLLPPPGRSRGNFRLYGEEHVERLQFIRHCRSLDMPLSDVRTLLSYRKRPDQDCGEVNMLLDEHIRQVESRIGALLELVHHGVELREACSGARPAQSCGILQMLSDCVCDTRGTTAHPSD [K104V L107G G128M] = 0.0645
MNIQIGELAKRTACPVVTIRFYEQEGLLPPPGRSRGNFRLYGEEHVERLQFIRHCRSLDMNLSDVRTLLSYRKRPDQDCGEVNMLLDEHIRQVESRIGALLELKHHLMELREACSGARPAQSCGILQGLSDCVCDTRGTTAHPSD [P61N V108M] = 0.07

Each variant below has a recorded value; state its sfGFP reporter fluorescence.
1. MNIQIGELAKRTACPVVTIRFYEQEGLLPPPGRSRGNFRLYGEEHVERLQFIRHCRSLDMPLSDVRTLLSYRKRPDQDCGEVNMLLDEHIRQVESRIGALLELKAHLVELREACSGARPAQSCGALQGLSDCVCDTRGTTAHPSD [H105A I125A]
2. MNIQIGELAKRTACPVVTIRFYEQEGLLPPPGRSRGNFRLYGEEHVERLQFIRHCRSLDMPLSDVRTLLSYRKRPDQDCGEVTMLLDEHIRQVRSRIGALLELKHHLVELREACSGARPAQSCGILQGLSDCVCDTRGTTAHPSD [N83T E94R]
3. MNIQIGELAKRTACPVVTIRFYEQEGLLPPPGRSRGNFRLYGEEHVERLQFIRHCRSLDMPLSDVRTLLSYRKRPDQDCGEVNMLLDEHIRQVESRIGALLELKHHLVELVEACSGARPAQSCGILQGLSDCVCDTRGTTAHTSD [R111V P143T]
4. MNIQIGELAKRTACPVVTIRFYEQEGLLPPPGRSRGNFRLYGEEHVERLQFIRHCRSLDMPLSDVRTLLSYRKRPDQDCGEVIMLLDEHIRQVESRHGALLELKHHLVELREACSGARPAQSCGILQGLSDCVCDTRGTTAHPSD [N83I I97H]
5. MNIQIGELAKRTACPVVTIRFYEQEGLLPAPGRSRGNFRLYGEEHVERLQFIRHCRSLDMPLSDVRTLLSYRKRPDQDCGEVNMLLDEHIRQVESRIGALLELVHHLVELREACSGARPAQSCGILQGLSDCVCDTRGTTAHPSD [P30A K104V]
6. MNIQIGELAKRTACPVVTIRFYEQEGLLPPPGRSRGNFRLYGEEHVERLQFIRHCRSLDMPLSDVRTLLSYRKRPDQDCGEVNQLLDEHIRQVESRIGALLELKHHLVELLEACSGARPAQSCGILQGLSDCVCDTRGTTAHPSD [M84Q R111L]
7. MNIQIGELAKRTACPVVTIRFYEQEGLLPPPGRSRGNFRLYGEEHVERLQFIRHCRSLDMPLSDVRTLLSYRKRPDQDCGEVNMLLDEHIRQVESRIGALLELKHHLVELREACSGARPAQSCGILQHLSDCVCDTRGTTAHASD [G128H P143A]

Ans:
0.0647
0.0643
0.0627
0.0618
0.0666
0.0624
0.061
